experiment: A CellTox Green Cytotoxicity Assay to monitor cytotoxicity in HEK293 cells - 24 hour (AID 1224875); conditions: CellTox Green fluorescence; series mostly up to 76.8 µM; further: nearly all actives have a fitted effect of over 45% in size
Records with an inconclusive call do not appear. The source made the active and inactive calls. The call rests on the fitted dose curve; in most records, active means well fitted activation curve with a large enough effect in the repeat runs; inconclusive means weak or mixed curves; inactive means flat fitted curve, though single readings scatter.
Outcomes you can answer with include only these: active, inactive

Sc1ccccc1Cl | inactive

Would you kindly look at the next entry?
Lookup: Status in this test for CC1(C)CCC(Cc2ccc(Cl)cc2)C1(O)Cn1cncn1 (centres undefined) ?
Found: inactive

* * *

assay: qHTS assay to identify small molecule antagonists of the sonic hedgehog signaling (Shh) pathway - cell viability counter screen (AID 1259367); conditions: NIH/3T3 Gli1-Luc viability, CellTiter-Fluor, 24 h; series mostly up to 92.4 µM; further: nearly all actives have a fitted effect of over 55% in size
Records with an inconclusive call do not appear. Calls of active or inactive are those of the source. Calls come from the whole dose curve; as a rule, active = well fitted cell-killing curve with a large enough effect in the repeat runs; inconclusive = weak or mixed curves, or effect the other way; inactive = no such curve, though single readings can be large or run the other way.
measure: outcome

O=C(O)C(F)(F)C(F)(F)C(F)(F)C(F)(F)C(F)(F)C(F)(F)C(F)(F)C(F)(F)C(F)(F)F | inactive
Clc1ccc(C(OCCN2CCCCC2)c2ccccc2)cc1 (stereo not drawn) | inactive
II | inactive
CC(C)(Cl)[N+](=O)[O-] | inactive
COP(=S)(Oc1cc(Cl)c(Br)cc1Cl)c1ccccc1 (stereo not drawn) | inactive
CCO[C@H]1O[C@@H]2OC3(C)CC[C@H]4[C@H](C)CC[C@@H]([C@H]1C)[C@@]24OO3 | inactive
O=C(NC(=O)c1c(F)cccc1F)Nc1ccc(OC(F)(F)C(F)OC(F)(F)F)c(Cl)c1 (stereo not drawn) | inactive

Next, consider the following compound.
Lookup: Give the measured outcome of `COC(N)=O` .
Found: inactive

* * *

Experiment: Caspase-3/7 induction in HepG2 cells by small molecules, qHTS cell viability counter screen (AID 1346981); further: nearly all actives have a fitted effect of over 30% in size
Conditions: CellTiter-Fluor fluorescence, 17 h; series mostly up to 92.4 µM
Source text: U.S. Tox21 Program National Center for Advancing Translational Sciences [NCATS] NIH Chemical Genomics Center [NCGC] U.S. Environmental Protection Agency [EPA] National Institutes of Environmental Health Sciences [NIEHS] National Toxicology Program [NTP] U.S. Food and Drug Administration [FDA] Tox21 Assay Overview: Apoptosis is a process of programmed cell death and plays a central role in the development of multicellular organisms. […]
Records with an inconclusive call do not appear. Active and inactive are the calls of the source. Calls follow the shape of the dose curve; as a rule, active = well fitted cell-killing curve with a large enough effect in the repeat runs; inconclusive = weak or mixed curves, or effect the other way; inactive = flat fitted curve, though single readings scatter.
Outcomes you can answer with include only these: active, inactive

Nc1nc(=S)[nH][nH]1 | inactive
C/C(=C\c1ccccc1)[N+](=O)[O-] | active
CC1CC(CC2CCC(N)C(C)C2)CCC1N (centres undefined) | inactive

Lookup: Status in this test for `COP(=S)(OC)Oc1ccc([N+](=O)[O-])cc1Cl` ?
Found: active

Lookup: Status in this test for CNP(=O)(OC)Oc1ccc(C(C)(C)C)cc1Cl (centres undefined) ?
Found: inactive

Lookup: Status in this test for `c1ccc(CN2CCNCC2)cc1` ?
Found: inactive

Lookup: Status in this test for `C=CC(=O)NCNC(=O)C=C` ?
Found: inactive

Lookup: Status in this test for `COC(=O)C(Cl)C(=O)OC` ?
Found: inactive

* * *

assay: qHTS assay for small molecule disruptors of the mitochondrial membrane potential (AID 720635); conditions: HepG2 mitochondrial membrane potential, Mito-MPS dye ratio; series mostly up to 83.2 µM
Inconclusive results are not listed. Active and inactive are the calls of the source. The call rests on the fitted dose curve; in most records, active means well fitted inhibition curve with a large enough effect in the signal ratio in the repeat runs; inconclusive means weak or mixed curves, or effect the other way; inactive means flat fitted curve, though single readings scatter; the % refers to the signal ratio.
Outcomes you can answer with include only these: T for active, F for inactive

// below: answered compounds
O=C1C(=O)c2cccc3cccc1c23 | T
Nc1ccc(N=Nc2ccc(-c3ccc(N=Nc4c(S(=O)(=O)O)cc5cc(S(=O)(=O)O)c(N=Nc6ccccc6)c(O)c5c4N)cc3)cc2)c(N)c1 | T
O=C1NCN(c2ccccc2)C12CCN(CCCOc1ccc(F)cc1)CC2 | T
COc1cc(CC(C)N)cc2c1OCO2 (stereo unspecified) | F
CC(C)N(CCC(C(N)=O)(c1ccccc1)c1ccccn1)C(C)C (stereo unspecified) | F
Cc1ccc(-c2c(Cl)nc(C#N)n2S(=O)(=O)N(C)C)cc1 | T
CCCCc1c(C)nc(NCC)nc1OS(=O)(=O)N(C)C | T
NS(=O)(=O)C(F)(F)C(F)(F)C(F)(F)C(F)(F)C(F)(F)C(F)(F)C(F)(F)C(F)(F)F | T
Cc1ccccc1C(=O)Nc1cccc(OC(C)C)c1 | T
CCCC(=O)Cl | F

Would you kindly look at the next entry?
Lookup: Status in this test for `CCCN(CC1CC1)c1c([N+](=O)[O-])cc(C(F)(F)F)cc1[N+](=O)[O-]` ?
Found: T

* * *

molecular target: Cytochrome P450 3A4 (Homo sapiens) (UniProt P08684); assay: Cytochrome P450 Family 3 Subfamily A Member 4 (CYP3A4) small molecule antagonists: luciferase reporter qHTS assay (AID 1671201); conditions: P450-Glo CYP3A4 enzyme, luciferin luminescence, 1 h; series mostly up to 115 µM; further: nearly all actives have a fitted effect of over 50% in size; further: potency means the concentration at half of the fitted maximal effect
Sequence (P08684 whole entry, looked up): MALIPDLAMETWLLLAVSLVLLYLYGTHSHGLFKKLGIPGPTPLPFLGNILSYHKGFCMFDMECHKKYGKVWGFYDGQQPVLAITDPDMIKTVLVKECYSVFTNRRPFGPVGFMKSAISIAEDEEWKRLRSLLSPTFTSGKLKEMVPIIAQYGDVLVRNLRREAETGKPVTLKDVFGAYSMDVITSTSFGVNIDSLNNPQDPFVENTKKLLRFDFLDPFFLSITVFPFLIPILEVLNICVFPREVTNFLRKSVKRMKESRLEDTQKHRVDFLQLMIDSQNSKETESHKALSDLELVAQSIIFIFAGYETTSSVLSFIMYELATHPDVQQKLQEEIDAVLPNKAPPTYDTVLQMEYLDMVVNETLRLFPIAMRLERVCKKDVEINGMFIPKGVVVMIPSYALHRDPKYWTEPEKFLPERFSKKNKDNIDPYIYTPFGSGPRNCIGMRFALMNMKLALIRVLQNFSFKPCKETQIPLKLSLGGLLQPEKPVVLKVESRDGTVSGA
Inconclusive results are not listed. Calls of active or inactive are those of the source. Calls come from the whole dose curve; as a rule, active = well fitted inhibition curve with a large enough effect in the repeat runs; inconclusive = weak or mixed curves; inactive = no such curve, though single readings can be large or run the other way.
measure: Potency

IC(I)=C(I)I | inactive
Clc1cc(Cl)c(Cl)c(Cl)c1 | inactive
CCOP(=S)(OCC)Oc1cc(Cl)c(Br)cc1Cl | 2240 nM (active)
C=CCC1([C@H](C)CCC)C(=O)NC(=O)NC1=O | 31400 nM (active)
[CH3][Sn]([CH3])([Cl])[Cl] | inactive

Lookup: Give the measured Potency of `N#Cc1ccc(Cl)cc1` .
Found: inactive

Lookup: Give the measured Potency of `Sc1ccccc1Cl` .
Found: inactive

Lookup: Give the measured Potency of `CCOC(=O)CBr` .
Found: inactive

Lookup: Give the measured Potency of `NC(=O)CI` .
Found: inactive

Lookup: Give the measured Potency of Clc1ccc(C2(Cn3cncn3)CC(Br)CO2)c(Cl)c1 (stereo not drawn) .
Found: 126 nM (active)

Lookup: Give the measured Potency of `COP(=S)(OC)Oc1ccc([N+](=O)[O-])cc1Cl` .
Found: 6330 nM (active)

Lookup: Give the measured Potency of `ClCCCCBr` .
Found: inactive

Lookup: Give the measured Potency of `O=C(O)COc1ccc(Cl)cc1` .
Found: inactive

Lookup: Give the measured Potency of `Cc1cc(=O)[nH]o1` .
Found: inactive

Lookup: Give the measured Potency of CC(O)(CS(=O)(=O)c1ccc(F)cc1)C(=O)Nc1ccc(C#N)c(C(F)(F)F)c1 (stereo not drawn) .
Found: 2330 nM (active)

Lookup: Give the measured Potency of `Cn1sc(Cl)cc1=O` .
Found: inactive

Lookup: Give the measured Potency of `CC(=O)CCC(C)=O` .
Found: inactive

Lookup: Give the measured Potency of CC1Sc2c(C(=O)O)c(=O)c3cc(F)c(N4CCNCC4)cc3n21 (stereo not drawn) .
Found: inactive

Lookup: Give the measured Potency of CCOP(=S)(Oc1ccc([N+](=O)[O-])cc1)c1ccccc1 (stereo not drawn) .
Found: 1590 nM (active)

Lookup: Give the measured Potency of `N#CCc1ccccc1` .
Found: inactive

Lookup: Give the measured Potency of `c1ccoc1` .
Found: inactive

Lookup: Give the measured Potency of `CCCCCCCCCCOC(=O)c1ccccc1C(=O)OCCCCCCCCCC` .
Found: inactive

Lookup: Give the measured Potency of `COC(C)(C)CCC[C@H](C)C/C=C/C(C)=C/C(=O)OC(C)C` .
Found: 20000 nM (active)

* * *

test: A CellTox Green Cytotoxicity Assay to monitor cytotoxicity in HepG2 cells - 16 hour (AID 1224876); details: CellTox Green fluorescence; series mostly up to 76.8 µM; further: nearly all actives have a fitted effect of over 45% in size
Inconclusive results are not listed. Active and inactive are the calls of the source. Calls follow the shape of the dose curve; as a rule, active = well fitted activation curve with a large enough effect in the repeat runs; inconclusive = weak or mixed curves; inactive = flat fitted curve, though single readings scatter.
Outcomes you can answer with include only these: y for active, n for inactive

// below: answered compounds
Nc1ccc([N+](=O)[O-])cc1[N+](=O)[O-] | n
O=C(CBr)OCc1ccccc1 | n
CC(C)(OO)c1ccccc1 | n

Lookup: Status in this test for `C[C@@H]1CC[C@H]2[C@@H](C)C(=O)O[C@@H]3O[C@@]4(C)CC[C@@H]1[C@]32OO4` ?
Found: n

Lookup: Status in this test for `CC(=O)CCC(C)=O` ?
Found: n

Lookup: Status in this test for `N#Cc1cc(I)c(O)c(I)c1` ?
Found: n

Lookup: Status in this test for `Clc1cccc(SC2CCNCC2)n1` ?
Found: n

Lookup: Status in this test for CCCCC(CC)COP(=O)(Oc1ccccc1)Oc1ccccc1 (stereo not drawn) ?
Found: n

Lookup: Status in this test for `CC(C)(C)c1cc([N+](=O)[O-])cc([N+](=O)[O-])c1O` ?
Found: n

Lookup: Status in this test for `CCOS(C)(=O)=O` ?
Found: n

Lookup: Status in this test for `C=CCC1([C@H](C)CCC)C(=O)NC(=O)NC1=O` ?
Found: n

Lookup: Status in this test for CC1(C)CCC(Cc2ccc(Cl)cc2)C1(O)Cn1cncn1 (stereo not drawn) ?
Found: y

Lookup: Status in this test for `CCCCCC[N+](=O)[O-]` ?
Found: n
